# EXPERIMENTAL_SYSTEM: F508delCFTR (Homo sapiens, UniProt P13569, DEL508-508)
# Construct: expressed in transfected cells; host or cells: CFBE41o- human lung-derived epithelial cells (CFBE41o-F508delCFTR-HRP), doxycycline-inducible
# Sequence (P13569 with tags, fused parts or gaps DEL508-508): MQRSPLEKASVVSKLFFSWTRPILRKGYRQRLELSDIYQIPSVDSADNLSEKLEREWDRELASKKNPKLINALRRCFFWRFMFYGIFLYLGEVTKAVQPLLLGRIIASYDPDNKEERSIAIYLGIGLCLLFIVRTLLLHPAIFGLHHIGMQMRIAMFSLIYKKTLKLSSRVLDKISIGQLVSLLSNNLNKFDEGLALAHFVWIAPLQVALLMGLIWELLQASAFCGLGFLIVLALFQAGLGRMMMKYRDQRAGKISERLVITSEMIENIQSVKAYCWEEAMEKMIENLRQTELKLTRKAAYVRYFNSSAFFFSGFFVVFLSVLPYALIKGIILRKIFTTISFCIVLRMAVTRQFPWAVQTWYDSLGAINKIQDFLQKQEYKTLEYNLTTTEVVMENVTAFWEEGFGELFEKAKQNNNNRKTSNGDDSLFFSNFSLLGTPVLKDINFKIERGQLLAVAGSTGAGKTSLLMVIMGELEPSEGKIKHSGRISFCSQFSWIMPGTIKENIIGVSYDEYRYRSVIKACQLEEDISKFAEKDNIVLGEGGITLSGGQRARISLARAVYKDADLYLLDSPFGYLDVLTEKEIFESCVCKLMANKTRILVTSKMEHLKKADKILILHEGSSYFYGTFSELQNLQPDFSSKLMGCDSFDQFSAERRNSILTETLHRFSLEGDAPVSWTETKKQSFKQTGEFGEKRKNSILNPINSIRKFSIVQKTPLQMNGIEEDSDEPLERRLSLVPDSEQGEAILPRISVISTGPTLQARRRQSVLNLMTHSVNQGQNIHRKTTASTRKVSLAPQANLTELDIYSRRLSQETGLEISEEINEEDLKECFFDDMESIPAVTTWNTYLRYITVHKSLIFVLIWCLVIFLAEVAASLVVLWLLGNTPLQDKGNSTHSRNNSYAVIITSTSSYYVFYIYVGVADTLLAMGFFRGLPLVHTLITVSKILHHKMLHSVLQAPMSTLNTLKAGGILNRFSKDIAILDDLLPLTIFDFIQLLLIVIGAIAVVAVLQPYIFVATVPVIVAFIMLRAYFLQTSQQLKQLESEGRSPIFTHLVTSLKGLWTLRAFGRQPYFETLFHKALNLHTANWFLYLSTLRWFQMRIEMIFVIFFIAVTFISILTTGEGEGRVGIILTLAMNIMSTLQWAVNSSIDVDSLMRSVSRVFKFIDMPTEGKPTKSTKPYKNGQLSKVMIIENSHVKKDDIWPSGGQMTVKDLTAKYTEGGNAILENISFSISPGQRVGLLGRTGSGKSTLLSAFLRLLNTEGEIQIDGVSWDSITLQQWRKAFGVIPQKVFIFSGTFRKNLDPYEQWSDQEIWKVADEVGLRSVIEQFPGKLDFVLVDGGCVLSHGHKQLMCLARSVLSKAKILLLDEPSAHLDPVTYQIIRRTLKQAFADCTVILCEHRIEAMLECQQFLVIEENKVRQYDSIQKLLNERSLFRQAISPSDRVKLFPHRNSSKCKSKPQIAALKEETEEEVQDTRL
# METHOD_SUMMARY: Cell Surface Expression-Horse Radish Peroxidase (CSE-HRP) assay, test compound with co-corrector;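 further: percent of 2 µM positive control corrector over DMSO; co-corrector is that same compound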
# Assay type: cell-based
# MEASUREMENT_SETUP: maximum at any tested concentration, normalized to positive control, with 2 μM co-corrector

{"MOLECULE": "COc1ccc(Br)c2c1C(C(=O)NS(=O)(=O)c1cccc3cnn(C)c13)CC2 (centres unmarked) [Example I-98]", "Maximum % activity (with co-corrector)": "+++ (≥350)"}
{"MOLECULE": "CCc1ccccc1S(=O)(=O)NC(=O)C1CCc2c(OC)cccc21 (centres unmarked) [II-24]", "Maximum % activity (with co-corrector)": "++ (≥150 and <350)"}
{"MOLECULE": "COc1ccc(C2CCC2)c2c1[C@H](C(=O)NS(=O)(=O)c1cccc3cnn(C)c13)C2 [Example I-144]", "Maximum % activity (with co-corrector)": "+++ (≥350)"}
{"MOLECULE": "CCC1(C(=O)NS(=O)(=O)c2ccccc2OCC(F)F)CCc2c(Cl)cccc21 (centres unmarked) [II-104]", "Maximum % activity (with co-corrector)": "++ (≥150 and <350)"}
{"MOLECULE": "COc1cccc2c1CCC2C(=O)NS(=O)(=O)c1ccccc1C(=O)OC(C)C (centres unmarked) [III-56]", "Maximum % activity (with co-corrector)": "+++ (≥350)"}
{"MOLECULE": "COc1ccc(C2CCC2)c2c1C(C(=O)NS(=O)(=O)c1cccc3c1NCCC3)CC2 (centres unmarked) [Example I-119]", "Maximum % activity (with co-corrector)": "+++ (≥350)"}
{"MOLECULE": "Cc1ccccc1S(=O)(=O)NC(=O)C1CCc2ccccc2C1 (centres unmarked) [III-10]", "Maximum % activity (with co-corrector)": "+ (<150)"}
{"MOLECULE": "COc1cccc2c1CCC2C(=O)NS(=O)(=O)c1ccc2ccccc2c1 (centres unmarked) [III-34]", "Maximum % activity (with co-corrector)": "+ (<150)"}
{"MOLECULE": "COc1ccc(Br)c2c1CCC2C(=O)NS(=O)(=O)c1ccccc1C (centres unmarked) [II-41]", "Maximum % activity (with co-corrector)": "+++ (≥350)"}
{"MOLECULE": "CCC1(C(=O)NS(=O)(=O)c2ccc3ccccc3c2)CCc2c(Cl)cccc21 (centres unmarked) [II-65]", "Maximum % activity (with co-corrector)": "++ (≥150 and <350)"}
{"MOLECULE": "COCCS(=O)(=O)NC(=O)C1CCc2c(Cl)cccc21 (centres unmarked) [III-5]", "Maximum % activity (with co-corrector)": "+ (<150)"}
{"MOLECULE": "COc1cccc2c1CC[C@@]2(C)C(=O)NS(=O)(=O)c1cccc2ccccc12 [Example I-6]", "Maximum % activity (with co-corrector)": "+++ (≥350)"}
{"MOLECULE": "COc1ccc(-c2ccc(C(F)(F)F)nc2)c2c1CCCC2C(=O)NS(=O)(=O)c1cccc2ccccc12 (centres unmarked) [II-129]", "Maximum % activity (with co-corrector)": "+++ (≥350)"}
{"MOLECULE": "Cc1ccccc1S(=O)(=O)NC(=O)C1CCc2c(-c3ccccc3)cccc21 (centres unmarked) [Example II-36]", "Maximum % activity (with co-corrector)": "+++ (≥350)"}
{"MOLECULE": "Cc1ccccc1S(=O)(=O)NC(=O)C1CCc2c(-c3cccnc3C)cccc21 (centres unmarked) [III-88]", "Maximum % activity (with co-corrector)": "+ (<150)"}
{"MOLECULE": "COc1ccc(C2CCC2)c2c1[C@@H](C(=O)NS(=O)(=O)c1cccc3ccccc13)CC2 [Example I-80]", "Maximum % activity (with co-corrector)": "+++ (≥350)"}
{"MOLECULE": "O=C(NS(=O)(=O)c1cccc2ccccc12)[C@H]1CCCc2cccc(Cl)c21 [Example I-12]", "Maximum % activity (with co-corrector)": "+++ (≥350)"}
{"MOLECULE": "Cc1ccccc1S(=O)(=O)NC(=O)C1CCc2c(-c3ccc(F)nc3)cccc21 (centres unmarked) [III-89]", "Maximum % activity (with co-corrector)": "++ (≥150 and <350)"}
{"MOLECULE": "Cc1ccccc1S(=O)(=O)NC(=O)C1CCc2c(C3=CCOCC3)cccc21 (centres unmarked) [II-34]", "Maximum % activity (with co-corrector)": "++ (≥150 and <350)"}
{"MOLECULE": "COc1ccc(Br)c2c1CC[C@@H]2C(=O)NS(=O)(=O)c1cccc2ccccc12 [Example I-85]", "Maximum % activity (with co-corrector)": "+++ (≥350)"}
{"MOLECULE": "CCOc1ccc2nc(S(=O)(=O)NC(=O)C3CCc4c(OC)cccc43)sc2c1 (centres unmarked) [III-53]", "Maximum % activity (with co-corrector)": "+ (<150)"}
{"MOLECULE": "COc1cccc2c1CCC2C(=O)NS(=O)(=O)c1ccc2oc(=O)ccc2c1 (centres unmarked) [III-47]", "Maximum % activity (with co-corrector)": "+ (<150)"}
{"MOLECULE": "CCOC(=O)c1ccc(S(=O)(=O)NC(=O)C2CCc3c(OC)cccc32)cc1 (centres unmarked) [III-48]", "Maximum % activity (with co-corrector)": "+ (<150)"}
{"MOLECULE": "CCC1(C(=O)NS(=O)(=O)c2cccc3ncccc23)CCc2c(Cl)cccc21 (centres unmarked) [Example I-42]", "Maximum % activity (with co-corrector)": "+++ (≥350)"}
{"MOLECULE": "CC(C)Oc1ccc(Br)c2c1C(C(=O)NS(=O)(=O)c1cccc3ccccc13)CC2 (centres unmarked) [Example I-54]", "Maximum % activity (with co-corrector)": "+++ (≥350)"}
{"MOLECULE": "COc1ncc(Br)c2c1C(C(=O)NS(=O)(=O)c1cccc3ccccc13)CCC2 (centres unmarked) [Example I-113]", "Maximum % activity (with co-corrector)": "+++ (≥350)"}
{"MOLECULE": "COc1ccc(OC)c2c1CC[C@@H]2C(=O)NS(=O)(=O)c1cccc2ccccc12 [Example I-89]", "Maximum % activity (with co-corrector)": "++ (≥150 and <350)"}
{"MOLECULE": "COc1ccc(C2CCC2)c2c1[C@@H](C(=O)NS(=O)(=O)c1cccc3cnn(C)c13)C2 (single isomer, unassigned) [Example I-143]", "Maximum % activity (with co-corrector)": "+++ (≥350)"}
{"MOLECULE": "CCC1(C(=O)NS(=O)(=O)c2cccc(F)c2C)CCc2c(Cl)cccc21 (centres unmarked) [II-101]", "Maximum % activity (with co-corrector)": "++ (≥150 and <350)"}
{"MOLECULE": "CCC1(C(=O)NS(=O)(=O)c2ccccc2COC)CCc2c(Cl)cccc21 (centres unmarked) [II-102]", "Maximum % activity (with co-corrector)": "++ (≥150 and <350)"}
{"MOLECULE": "COc1ccc(C2CCC2)c2c1C(C(=O)NS(=O)(=O)c1cccn3nccc13)CC2 (centres unmarked) [Example I-135]", "Maximum % activity (with co-corrector)": "+++ (≥350)"}
{"MOLECULE": "CCC1(C(=O)NS(=O)(=O)c2cccc(F)c2F)CCc2c(Cl)cccc21 (centres unmarked) [II-103]", "Maximum % activity (with co-corrector)": "+ (<150)"}
{"MOLECULE": "O=C(NS(=O)(=O)c1ccccc1F)C1CCc2c(Cl)cccc21 (centres unmarked) [II-28]", "Maximum % activity (with co-corrector)": "++ (≥150 and <350)"}
{"MOLECULE": "COc1ccc(C2CCC2)c2c1C(C(=O)NS(=O)(=O)c1cccc3cnn(C)c13)CC2 (centres unmarked) [Example I-99]", "Maximum % activity (with co-corrector)": "+++ (≥350)"}
{"MOLECULE": "COc1cccc2c1CCC2C(=O)NS(=O)(=O)c1ccc(O)cc1 (centres unmarked) [III-20]", "Maximum % activity (with co-corrector)": "+ (<150)"}
